TARGET ENTITY: CDK2/CycE (Homo sapiens)
Construct: GST; purchased ProQinase GmbH (Freiburg, Germany); host or cells: insect cells (Sf9)
RUN DESCRIPTION: CDK2/CycE kinase assay (TR-FRET, 10 μM ATP)
Assay type: biochemical
CONDITION NOTES: Method 2 (2a)
# note: exactly 100 nM is not below, so it is Not met; use Met for IC50 strictly under it

// below: answered molecules
molecule="CCOC(=O)N=S(C)(=O)Cc1ccnc(Nc2cc(-c3ccc(F)cc3OC)c(F)cn2)c1 (racemic)" target_entity="CDK2/CycE (Homo sapiens)" category="Not met"
molecule="CCOc1cc(F)ccc1-c1cc(Nc2cc(CS(C)(=N)=O)cc(F)n2)ncc1F (single isomer, unassigned; (+)) [Example 28]" target_entity="CDK2/CycE (Homo sapiens)" category="Not met"
molecule="COc1cc(F)ccc1-c1cc(Nc2cc(CS(C)(=N)=O)cc(C)n2)ncc1F (single isomer, unassigned; (+)) [Example 32]" target_entity="CDK2/CycE (Homo sapiens)" category="Not met"
molecule="COc1cc(F)ccc1-c1cc(Nc2cc(CS(C)(=N)=O)cc(C)n2)ncc1F (racemic) [Example 4]" target_entity="CDK2/CycE (Homo sapiens)" category="Not met"
molecule="COc1cc(F)ccc1-c1cc(Nc2cc(CS(C)(=N)=O)cc(Cl)n2)ncc1F (racemic)" target_entity="CDK2/CycE (Homo sapiens)" category=Met

Determine whether this molecule shows IC50 lower than 100 nM (ties excluded): COc1cc(F)ccc1-c1cc(Nc2cc(CS(C)(=O)=NC(C)=O)ccn2)ncc1F (racemic)
Not met

Another molecule to check: COc1cc(CS(C)(=N)=O)cc(Nc2cc(-c3ccc(F)cc3OC)c(F)cn2)n1 (racemic)
Met

Another molecule to check: CCOc1cc(F)ccc1-c1cc(Nc2cc(CS(C)(=O)=NC(=O)C(F)(F)F)cc(F)n2)ncc1F (racemic)
Not met

Another molecule to check: COc1cc(F)ccc1-c1cc(Nc2cc(CS(C)(=O)=NC(=O)C(F)(F)F)cc(C(F)(F)F)n2)ncc1F (single isomer, unassigned; (+)) [Example 24]
Not met

Another molecule to check: COc1cc(F)ccc1-c1cc(Nc2cc(CS(=N)(=O)CCO)ccn2)ncc1F (racemic)
Not met

Another molecule to check: COc1cc(F)ccc1-c1cc(Nc2cc(CS(C)(=N)=O)c(Br)c(C)n2)ncc1F (racemic)
Not met

Another molecule to check: COc1cc(F)ccc1-c1cc(Nc2cc(CS(C)(=N)=O)cc(C(F)(F)F)n2)ncc1F (single isomer, unassigned; (-)) [Example 23]
Met

Another molecule to check: CCOC(=O)N=S(C)(=O)Cc1cc(Nc2cc(-c3ccc(F)cc3OC)c(F)cn2)nc(OC)c1 (racemic)
Met

Another molecule to check: COc1cc(F)ccc1-c1cc(Nc2cc(CS(C)(=N)=O)cc(C(F)(F)F)n2)ncc1F (racemic) [Example 21]
Met

###

TARGET ENTITY: CDK9/CycT1 (Homo sapiens, UniProt P50750)
Construct: Recombinant full-length His-tagged human CDK9 and CycT1; His; purchased Invitrogen PV4131; host or cells: insect cells
Sequence (P50750 whole entry): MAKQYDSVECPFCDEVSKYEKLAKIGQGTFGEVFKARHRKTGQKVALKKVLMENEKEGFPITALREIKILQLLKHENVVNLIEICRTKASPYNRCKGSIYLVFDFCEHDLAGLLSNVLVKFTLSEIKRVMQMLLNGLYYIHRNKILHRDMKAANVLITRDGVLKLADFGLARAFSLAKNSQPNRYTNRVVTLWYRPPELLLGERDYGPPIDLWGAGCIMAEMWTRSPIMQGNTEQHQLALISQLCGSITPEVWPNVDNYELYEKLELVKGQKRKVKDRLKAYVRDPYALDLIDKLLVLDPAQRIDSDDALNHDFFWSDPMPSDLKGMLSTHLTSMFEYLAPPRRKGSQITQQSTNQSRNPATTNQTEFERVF
Sequence (O60563 whole entry partner): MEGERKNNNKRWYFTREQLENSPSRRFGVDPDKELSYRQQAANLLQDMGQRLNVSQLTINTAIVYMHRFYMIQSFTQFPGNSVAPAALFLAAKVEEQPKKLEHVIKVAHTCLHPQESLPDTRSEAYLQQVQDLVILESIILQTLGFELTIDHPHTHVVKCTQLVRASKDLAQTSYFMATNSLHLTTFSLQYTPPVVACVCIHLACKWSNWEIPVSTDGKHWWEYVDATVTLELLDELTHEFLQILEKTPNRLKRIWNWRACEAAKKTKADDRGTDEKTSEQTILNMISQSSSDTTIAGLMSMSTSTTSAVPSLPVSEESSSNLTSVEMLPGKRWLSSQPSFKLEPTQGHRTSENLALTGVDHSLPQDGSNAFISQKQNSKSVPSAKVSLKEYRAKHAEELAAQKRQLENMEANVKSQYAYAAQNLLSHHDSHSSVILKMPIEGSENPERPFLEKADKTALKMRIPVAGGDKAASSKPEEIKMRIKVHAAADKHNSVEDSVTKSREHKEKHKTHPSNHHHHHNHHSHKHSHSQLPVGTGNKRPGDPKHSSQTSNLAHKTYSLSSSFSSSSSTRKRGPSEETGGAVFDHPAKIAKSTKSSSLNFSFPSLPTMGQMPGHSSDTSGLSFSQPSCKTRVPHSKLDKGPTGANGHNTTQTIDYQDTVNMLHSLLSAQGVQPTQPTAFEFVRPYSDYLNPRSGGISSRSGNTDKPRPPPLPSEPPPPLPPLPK
RUN DESCRIPTION: CDK9/CycT1 kinase assay (TR-FRET, 10 μM ATP)
Format: biochemical
CONDITION NOTES: Method 1a
Quick reference: IC50 of the listed items.
// units = nM; emit number, no label

Guide cases for IC50, answers given:
compound="COc1cc(F)ccc1-c1cc(Nc2cc(CS(C)(=O)=NC#N)ccn2)ncc1F (single isomer, unassigned)" observed_value=4
compound="CCOc1cc(F)ccc1-c1cc(Nc2cc(CS(C)(=O)=NC(=O)C(F)(F)F)cc(F)n2)ncc1F (racemic)" observed_value=9
compound="CCOC(=O)N=S(C)(=O)Cc1ccnc(Nc2cc(-c3ccc(F)cc3OC)c(F)cn2)c1 (racemic)" observed_value=1

// next item, IC50 requested
Value lookup for IC50; key = COc1cc(F)ccc1-c1cc(Nc2cc(CS(C)(=N)=O)cc(C(F)(F)F)n2)ncc1F (racemic) [Example 21]
2
